Reference source for all entries: PubChem BioAssay AID1963422

System: 463943-066-T-J2-PDC complex spheroid growth
EXPERIMENT: Anticancer human tumor 463943-066-T-J2-PDC patient-derived colon adenocarcinoma cell line growth inhibition [Asc]
CONDITION: second compound 0.1 µM; first compound 0.3 µM; hits give low values
Reported viability, T/C values for a set of molecules
ASSAY ENDPOINT: viability, T/C (%)

molecule="CCN1C(C(=O)NC23CCC(C(=O)O)(CC2)CC3)C(c2cccc(Cl)c2F)C2(C(=O)Nc3cc(Cl)ccc32)C12CCCCC2 (stereo not given) + Cc1c(S(C)(=O)=O)c(-c2cc(F)cc(N3CCN(c4ccc(NS(=O)(=O)c5ccc(NC(CCN6CCC(C(=O)OCCCP(=O)(O)O)CC6)CSc6ccccc6)c(S(=O)(=O)C(F)(F)F)c5)cc4)CC3)c2)c(-c2ccc(Cl)cc2)n1C(C)C" tested_system="463943-066-T-J2-PDC complex spheroid growth" assay_endpoint="viability, T/C" val=73.3
molecule="NC(=O)C(=Cn1cnc(-c2cc(C(F)(F)F)cc(C(F)(F)F)c2)n1)c1cncnc1 + CNC(C)C(=O)NC1CN(S(=O)(=O)c2cccc(S(=O)(=O)N3CCC4CCC(C(=O)NC(c5ccccc5)c5ccccc5)N4C(=O)C(NC(=O)C(C)NC)C3)c2)CCC2CCC(C(=O)NC(c3ccccc3)c3ccccc3)N2C1=O" tested_system="463943-066-T-J2-PDC complex spheroid growth" assay_endpoint="viability, T/C" val=67.3
molecule="Cc1nc(N2CCC3(CC2)COC(C)C3N)c(CO)nc1Sc1ccnc(N)c1Cl (stereo not given) + Cc1c(S(C)(=O)=O)c(-c2cc(F)cc(N3CCN(c4ccc(NS(=O)(=O)c5ccc(NC(CCN6CCC(C(=O)OCCCP(=O)(O)O)CC6)CSc6ccccc6)c(S(=O)(=O)C(F)(F)F)c5)cc4)CC3)c2)c(-c2ccc(Cl)cc2)n1C(C)C" tested_system="463943-066-T-J2-PDC complex spheroid growth" assay_endpoint="viability, T/C" val=82.4
molecule="NC(=O)C(=Cn1cnc(-c2cc(C(F)(F)F)cc(C(F)(F)F)c2)n1)c1cncnc1 + Cc1c(S(C)(=O)=O)c(-c2cc(F)cc(N3CCN(c4ccc(NS(=O)(=O)c5ccc(NC(CCN6CCC(C(=O)OCCCP(=O)(O)O)CC6)CSc6ccccc6)c(S(=O)(=O)C(F)(F)F)c5)cc4)CC3)c2)c(-c2ccc(Cl)cc2)n1C(C)C" tested_system="463943-066-T-J2-PDC complex spheroid growth" assay_endpoint="viability, T/C" val=69.5
molecule="Cc1nc(N2CCC3(CC2)COC(C)C3N)c(CO)nc1Sc1ccnc(N)c1Cl (stereo not given) + CNC(C)C(=O)NC1CN(S(=O)(=O)c2cccc(S(=O)(=O)N3CCC4CCC(C(=O)NC(c5ccccc5)c5ccccc5)N4C(=O)C(NC(=O)C(C)NC)C3)c2)CCC2CCC(C(=O)NC(c3ccccc3)c3ccccc3)N2C1=O" tested_system="463943-066-T-J2-PDC complex spheroid growth" assay_endpoint="viability, T/C" val=88.1

###

Tested on: 463943-066-T-J2-PDC complex spheroid growth
EXPERIMENT: Anticancer human tumor 463943-066-T-J2-PDC cell line growth inhibition [Asc];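 further: compound exposure lasted 7 days; 100% = DMSO vehicle control wells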
CONDITION: second compound 0.03 µM; first compound 0.1 µM; hits give low values
Reported viability, T/C is given for each of the following compounds.
ASSAY ENDPOINT: viability, T/C

compound="NC1CCC(NC2CC2c2ccccc2)CC1 (stereo not given) + CCN1C(C(=O)NC23CCC(C(=O)O)(CC2)CC3)C(c2cccc(Cl)c2F)C2(C(=O)Nc3cc(Cl)ccc32)C12CCCCC2" assay_endpoint="viability, T/C" val=75.3%
compound="Cn1ncnc1[C@H]1c2n[nH]c(=O)c3cc(F)cc(c23)N[C@@H]1c1ccc(F)cc1 + CCN1C(C(=O)NC23CCC(C(=O)O)(CC2)CC3)C(c2cccc(Cl)c2F)C2(C(=O)Nc3cc(Cl)ccc32)C12CCCCC2" assay_endpoint="viability, T/C" val=90.1%
compound="CCN1CCN(Cc2ccc(Nc3ncc(F)c(-c4cc(F)c5nc(C)n(C(C)C)c5c4)n3)nc2)CC1 + CCN1C(C(=O)NC23CCC(C(=O)O)(CC2)CC3)C(c2cccc(Cl)c2F)C2(C(=O)Nc3cc(Cl)ccc32)C12CCCCC2" assay_endpoint="viability, T/C" val=92.5%
compound="C=C(F)C(=O)N1CCN(c2nc(OCC3CCCN3C)nc3c2CCN(c2cccc4cccc(Cl)c24)C3)CC1CC#N (stereo not given) + CCN1C(C(=O)NC23CCC(C(=O)O)(CC2)CC3)C(c2cccc(Cl)c2F)C2(C(=O)Nc3cc(Cl)ccc32)C12CCCCC2" assay_endpoint="viability, T/C" val=93.9%
compound="C#Cc1c(F)ccc2cc(O)cc(-c3ncc4c(N5CC6CCC(C5)N6)nc(OCC56CCCN5CC(F)C6)nc4c3F)c12 (stereo not given) + CCN1C(C(=O)NC23CCC(C(=O)O)(CC2)CC3)C(c2cccc(Cl)c2F)C2(C(=O)Nc3cc(Cl)ccc32)C12CCCCC2" assay_endpoint="viability, T/C" val=90.5%

###

System: 463943-066-T-J2-PDC complex spheroid growth
EXPERIMENT: Anticancer human tumor 463943-066-T-J2-PDC cell line growth inhibition [Asc];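 further: compound exposure lasted 7 days; 100% = DMSO vehicle control wells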
CONDITION: second compound 3 µM; first compound 10 µM; hits give low values
ASSAY ENDPOINT: viability, T/C (%)

compound="O=C(c1cc(Cc2n[nH]c(=O)c3ccccc23)ccc1F)N1CCN(C(=O)C2CC2)CC1 + CCN1C(C(=O)NC23CCC(C(=O)O)(CC2)CC3)C(c2cccc(Cl)c2F)C2(C(=O)Nc3cc(Cl)ccc32)C12CCCCC2" val=74.7
compound="C=CC(=O)N1CCN(c2nc(=O)n(-c3c(C)ccnc3C(C)C)c3nc(-c4c(O)cccc4F)c(F)cc23)C(C)C1 (centres undefined) + CCN1C(C(=O)NC23CCC(C(=O)O)(CC2)CC3)C(c2cccc(Cl)c2F)C2(C(=O)Nc3cc(Cl)ccc32)C12CCCCC2" val=72.5
compound="C=C(F)C(=O)N1CCN(c2nc(OCC3CCCN3C)nc3c2CCN(c2cccc4cccc(Cl)c24)C3)CC1CC#N (centres undefined) + CCN1C(C(=O)NC23CCC(C(=O)O)(CC2)CC3)C(c2cccc(Cl)c2F)C2(C(=O)Nc3cc(Cl)ccc32)C12CCCCC2" val=28
compound="C#Cc1c(F)ccc2cc(O)cc(-c3ncc4c(N5CC6CCC(C5)N6)nc(OCC56CCCN5CC(F)C6)nc4c3F)c12 (centres undefined) + CCN1C(C(=O)NC23CCC(C(=O)O)(CC2)CC3)C(c2cccc(Cl)c2F)C2(C(=O)Nc3cc(Cl)ccc32)C12CCCCC2" val=67.6

###

Tested on: 463943-066-T-J2-PDC complex spheroid growth
EXPERIMENT: Anticancer human tumor 463943-066-T-J2-PDC cell line growth inhibition [Asc];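 further: compound exposure lasted 7 days; 100% = DMSO vehicle control wells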
CONDITION: second compound 3.16 µM; first compound 3.16 µM; hits give low values
ASSAY ENDPOINT: viability, T/C (%)

compound="C=CC(=O)N1CCN(c2nc(=O)n(-c3c(C)ccnc3C(C)C)c3nc(-c4c(O)cccc4F)c(F)cc23)C(C)C1 (centres undefined) + Cc1c(S(C)(=O)=O)c(-c2cc(F)cc(N3CCN(c4ccc(NS(=O)(=O)c5ccc(NC(CCN6CCC(C(=O)OCCCP(=O)(O)O)CC6)CSc6ccccc6)c(S(=O)(=O)C(F)(F)F)c5)cc4)CC3)c2)c(-c2ccc(Cl)cc2)n1C(C)C" tested_system="463943-066-T-J2-PDC complex spheroid growth" assay_endpoint="viability, T/C" val=66
compound="C#Cc1c(F)ccc2cc(O)cc(-c3ncc4c(N5CC6CCC(C5)N6)nc(OCC56CCCN5CC(F)C6)nc4c3F)c12 (centres undefined) + Cc1c(S(C)(=O)=O)c(-c2cc(F)cc(N3CCN(c4ccc(NS(=O)(=O)c5ccc(NC(CCN6CCC(C(=O)OCCCP(=O)(O)O)CC6)CSc6ccccc6)c(S(=O)(=O)C(F)(F)F)c5)cc4)CC3)c2)c(-c2ccc(Cl)cc2)n1C(C)C" tested_system="463943-066-T-J2-PDC complex spheroid growth" assay_endpoint="viability, T/C" val=65.9
compound="C=C(F)C(=O)N1CCN(c2nc(OCC3CCCN3C)nc3c2CCN(c2cccc4cccc(Cl)c24)C3)CC1CC#N (centres undefined) + Cc1c(S(C)(=O)=O)c(-c2cc(F)cc(N3CCN(c4ccc(NS(=O)(=O)c5ccc(NC(CCN6CCC(C(=O)OCCCP(=O)(O)O)CC6)CSc6ccccc6)c(S(=O)(=O)C(F)(F)F)c5)cc4)CC3)c2)c(-c2ccc(Cl)cc2)n1C(C)C" tested_system="463943-066-T-J2-PDC complex spheroid growth" assay_endpoint="viability, T/C" val=23.1
compound="O=C(c1cc(Cc2n[nH]c(=O)c3ccccc23)ccc1F)N1CCN(C(=O)C2CC2)CC1 + Cc1c(S(C)(=O)=O)c(-c2cc(F)cc(N3CCN(c4ccc(NS(=O)(=O)c5ccc(NC(CCN6CCC(C(=O)OCCCP(=O)(O)O)CC6)CSc6ccccc6)c(S(=O)(=O)C(F)(F)F)c5)cc4)CC3)c2)c(-c2ccc(Cl)cc2)n1C(C)C" tested_system="463943-066-T-J2-PDC complex spheroid growth" assay_endpoint="viability, T/C" val=62.8
